IC10 haemolysis listing for selected molecules.
- Test system: human erythrocytes
- test.details: in vitro
- Format: cell-based
- experimental.conditions: human erythrocytes
Square brackets hold non-standard residues; d marks the D form. Peptide text beside a SMILES is read from it. N(1-naphthylmethyl)Gly = O=C(O)CNCc1cccc2ccccc12; Nphe = O=C(O)CNCc1ccccc1; NBuGly = CCCCNCC(=O)O
The figure you give is taken to be in µM; do not add the unit.

# count of solved cases: 3
{"columns": ["molecule", "tested.system", "units.label", "IC10 haemolysis"],
 "data": [
  ["CC(C)C[C@H](NC(=O)[C@H](CCCCN)NC(=O)[C@@H](N)CCCCN)C(=O)N[C@@H](CCCCN)C(=O)N[C@@H](Cc1cccc2ccccc12)C(=O)N[C@@H](Cc1ccccc1)C(=O)N[C@@H](Cc1cccc2ccccc12)C(N)=O [Compound 6] (HELM PEPTIDE1{K.K.L.K.[O=C([C@H](Cc1cccc2ccccc12)N[*:1])[*:2]].F.[O=C([C@H](Cc1cccc2ccccc12)N[*:1])[*:2]].[am]}$$$$V2.0; N-terminus assumed)", "human erythrocytes", "µM", 55.6],
  ["CCCCN(CC(=O)N(CC(=O)N(CC(=O)N(CC(N)=O)Cc1cccc2ccccc12)Cc1ccccc1)Cc1cccc2ccccc12)C(=O)[C@H](CCCCN)NC(=O)[C@H](CCCCN)NC(=O)[C@@H](N)CCCCN [Compound 15] (H-KKK[NBuGly][N(1-naphthylmethyl)Gly][Nphe][N(1-naphthylmethyl)Gly]-NH2)", "human erythrocytes", "µM", 8.4],
  ["CCCCN(CC(=O)N[C@@H](CCCCN)C(=O)N(CC(=O)N(CC(=O)N(CC(N)=O)Cc1cccc2ccccc12)Cc1ccccc1)Cc1cccc2ccccc12)C(=O)[C@H](CCCCN)NC(=O)[C@@H](N)CCCCN [Compound 14] (H-KK[NBuGly]K[N(1-naphthylmethyl)Gly][Nphe][N(1-naphthylmethyl)Gly]-NH2)", "human erythrocytes", "µM", 54.0]
]}

Recorded IC10 haemolysis for CC(C)C[C@@H](NC(=O)[C@H](CCCCN)NC(=O)[C@@H](Cc1cccc2ccccc12)NC(=O)[C@@H](Cc1ccccc1)NC(=O)[C@H](N)Cc1cccc2ccccc12)C(=O)N[C@@H](CCCCN)C(=O)N[C@@H](CCCCN)C(N)=O [Compound 8] (HELM PEPTIDE1{[N[C@H](Cc1cccc2ccccc12)C(=O)[*:2]].[dF].[O=C([C@@H](Cc1cccc2ccccc12)N[*:1])[*:2]].K.[dL].K.K.[am]}$$$$V2.0) , please?
57.0

# credit: paper PMC7414031
